Sourced from patent US9649309B2

Task for the reader: assign each of the following molecules its reported pIC50.
- STUDY TARGET: Tyro3 (Homo sapiens (Human), UniProt Q06418)
- Sequence (Q06418 41-890 limits assumed): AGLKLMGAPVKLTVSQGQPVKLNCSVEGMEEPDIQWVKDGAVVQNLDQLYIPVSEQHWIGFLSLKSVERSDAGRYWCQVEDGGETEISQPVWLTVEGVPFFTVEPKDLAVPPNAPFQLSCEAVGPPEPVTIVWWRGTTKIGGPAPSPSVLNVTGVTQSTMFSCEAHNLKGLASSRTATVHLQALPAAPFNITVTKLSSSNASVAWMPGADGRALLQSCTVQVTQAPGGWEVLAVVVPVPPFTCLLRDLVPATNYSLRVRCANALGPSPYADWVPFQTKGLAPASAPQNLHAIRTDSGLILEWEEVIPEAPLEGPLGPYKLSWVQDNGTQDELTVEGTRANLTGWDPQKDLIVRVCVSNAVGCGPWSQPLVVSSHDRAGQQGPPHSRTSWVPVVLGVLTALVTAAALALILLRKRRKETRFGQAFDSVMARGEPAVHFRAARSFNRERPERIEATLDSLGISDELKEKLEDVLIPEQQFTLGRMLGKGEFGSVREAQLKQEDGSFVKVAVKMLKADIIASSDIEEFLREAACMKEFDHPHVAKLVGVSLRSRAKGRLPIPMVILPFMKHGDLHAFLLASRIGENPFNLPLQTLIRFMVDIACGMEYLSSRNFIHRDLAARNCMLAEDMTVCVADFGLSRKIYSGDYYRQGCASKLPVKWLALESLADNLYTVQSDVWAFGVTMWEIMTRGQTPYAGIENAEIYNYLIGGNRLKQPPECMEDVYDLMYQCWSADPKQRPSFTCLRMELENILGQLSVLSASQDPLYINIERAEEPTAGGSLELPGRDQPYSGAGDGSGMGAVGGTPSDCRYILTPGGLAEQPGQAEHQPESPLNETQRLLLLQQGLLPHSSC
- ASSAY: biochemical
Answers are plain numbers, as −log10 of the molar value.

Below: 2 molecules and their reported pIC50.
CCCCNc1ncc(-c2ccc(C(=O)NC3CCN(C)CC3)o2)c(N[C@H]2CC[C@H](O)CC2)n1 [UNC3181A] :: 6.29
CCCCNc1ncc(-c2cc(NC3CCCC3)ncn2)c(N[C@H]2CC[C@H](O)CC2)n1 [UNC3199A] :: 6.07

I'm hoping you can list pIC50 for every molecule here, please.
1. CCCCNc1ncc(-c2cc(NC3CC3)ncn2)c(N[C@H]2CC[C@H](O)CC2)n1 [UNC3193A]
2. CCCCNc1ncc(-c2ncc(CN3CCCC3)s2)c(N[C@H]2CC[C@H](O)CC2)n1 [UNC4223A]

// result
6.94
7.85

// batch mode: one pIC50 value per listed entry
1. CCCCNc1ncc(C(=O)NCCCCO)c(N[C@H]2CC[C@H](O)CC2)n1 [UNC1844A]
2. CCCCNc1ncc(-c2ccc(F)cn2)c(NC[C@H]2CC[C@H](N)CC2)n1 [UNC3021A]
3. CCCCNc1ncc(C(=O)NC2CCC2)c(N[C@H]2CC[C@H](O)CC2)n1 [UNC2737A]
4. CCCCNc1ncc(-c2ccc(C(=O)N(C)C3CCN(C)CC3)cn2)c(N[C@H]2CC[C@H](O)CC2)n1 [UNC2915A]

// result
1. 5.97
2. 6.94
3. 6.35
4. 8.19

Please supply pIC50 for each of the following items, keeping them in order.
1. CCCCNc1ncc(-c2ccc(CCN3CCN(C)CC3)cn2)c(N[C@H]2CC[C@H](O)CC2)n1 [UNC2795A]
2. CCCCNc1ncc(-c2ccc(CN3CCCC3)cn2)c(N[C@H]2CC[C@H](O)CC2)n1 [UNC2490A]
3. CCCCNc1ncc(-c2cc(NC(C)C)ncn2)c(N[C@H]2CC[C@H](O)CC2)n1 [UNC3192A]
4. CCCCNc1ncc(-c2cc(N3CCCCC3)ncn2)c(N[C@H]2CC[C@H](O)CC2)n1 [UNC3198A]
5. CCCCNc1ncc(C(=O)NC2CCCCCC2)c(N[C@H]2CC[C@H](O)CC2)n1 [UNC2734A]
6. CCCCNc1ncc(-c2ccc(CN3CCOCC3)o2)c(N[C@H]2CC[C@H](O)CC2)n1 [UNC2898A]
7. CCCCNc1ncc(C(=O)NC2CCN(C3CCN(C)CC3)CC2)c(N[C@H]2CC[C@H](O)CC2)n1 [UNC2698A]

// result
1: 7.09; 2: 7.74; 3: 7.11; 4: 5.43; 5: 6.30; 6: 6.43; 7: 7.37

For every record below, what is its pIC50?
1. CCCCNc1ncc(-c2cc(N3CCCC3)ncn2)c(N[C@H]2CC[C@H](O)CC2)n1 [UNC3195A]
2. CCCCNc1ncc(-c2cccc(CN3CCN(C)CC3)n2)c(N[C@H]2CC[C@H](O)CC2)n1 [UNC2622A]

// result
6.64
6.79

###

- STUDY TARGET: Axl (Homo sapiens (Human), UniProt P30530)
- Sequence (P30530 26-894 limits assumed): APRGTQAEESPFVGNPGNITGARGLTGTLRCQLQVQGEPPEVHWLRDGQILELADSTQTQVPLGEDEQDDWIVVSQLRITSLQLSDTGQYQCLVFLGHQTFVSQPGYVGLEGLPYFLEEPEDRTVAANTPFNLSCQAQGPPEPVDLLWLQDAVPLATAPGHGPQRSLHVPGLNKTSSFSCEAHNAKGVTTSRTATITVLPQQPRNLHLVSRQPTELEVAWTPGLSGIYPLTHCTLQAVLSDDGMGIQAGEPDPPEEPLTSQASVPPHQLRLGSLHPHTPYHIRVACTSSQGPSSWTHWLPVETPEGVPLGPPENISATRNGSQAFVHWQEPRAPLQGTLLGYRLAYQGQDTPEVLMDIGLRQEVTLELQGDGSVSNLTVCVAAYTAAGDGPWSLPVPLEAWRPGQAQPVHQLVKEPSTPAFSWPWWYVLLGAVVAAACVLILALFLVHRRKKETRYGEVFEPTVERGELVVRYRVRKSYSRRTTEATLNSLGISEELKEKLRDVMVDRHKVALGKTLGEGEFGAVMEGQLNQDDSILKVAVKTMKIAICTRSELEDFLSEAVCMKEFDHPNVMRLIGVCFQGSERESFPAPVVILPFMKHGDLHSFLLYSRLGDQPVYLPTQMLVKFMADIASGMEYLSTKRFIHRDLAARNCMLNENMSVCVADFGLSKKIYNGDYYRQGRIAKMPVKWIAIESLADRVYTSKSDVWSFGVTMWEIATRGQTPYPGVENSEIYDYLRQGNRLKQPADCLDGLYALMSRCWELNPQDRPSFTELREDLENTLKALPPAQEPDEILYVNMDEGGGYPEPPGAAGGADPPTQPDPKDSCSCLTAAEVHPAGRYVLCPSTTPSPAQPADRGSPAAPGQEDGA
- ASSAY: biochemical
PARAMETER MEASURED: pIC50
Answers are plain numbers, as −log10 of the molar value.

Observe how each entry below is paired with its result.
CCCCNc1ncc(C(=O)NCCCN2CCOCC2)c(N[C@H]2CC[C@H](O)CC2)n1 [UNC1839A] :: 6.02
CCCCNc1ncc(-c2ccc(CCCN3CCN(C)CC3)cn2)c(N[C@H]2CC[C@H](O)CC2)n1 [UNC2792A] :: 6.72

Now turn to the next molecule.
// query Form field: reported pIC50 of CCCCNc1ncc(C(=O)NCc2ccc(CN3CCOCC3)cc2)c(N[C@H]2CC[C@H](O)CC2)n1 [UNC2735A]
// result 6.72

###

- STUDY TARGET: Tyro3 (Homo sapiens (Human), UniProt Q06418)
- MEASUREMENT CONDITIONS: read-out: IC50 Tyro3
PARAMETER MEASURED: pIC50
Answers are plain numbers, as −log10 of the molar value.

// worked examples, pIC50 included
CCCCNc1ncc(-c2nccs2)c(N[C@H]2CC[C@H](O)CC2)n1 [UNC3047A] :: 6.80
CCCCNc1ncc(-c2cc(NCC)ncn2)c(N[C@H]2CC[C@H](O)CC2)n1 [UNC3113A] :: 7.11

# batch: return pIC50 for each of the 2 compounds below
1. CCCCNc1ncc(C(=O)NC2CCN(CCc3ccccc3)CC2)c(N[C@H]2CC[C@H](O)CC2)n1 [UNC2800A]
2. CCCCNc1ncc(-c2cc(Nc3cccc(OC)c3)ncn2)c(N[C@H]2CC[C@H](O)CC2)n1 [UNC4270A]

// result
[6.89, 6.92]

###

Task for the reader: assign each of the following compounds its reported IC50.
- STUDY TARGET: Axl (Homo sapiens (Human))
- MEASUREMENT CONDITIONS: read-out: IC50 Axl
Numbers only, in nM.

CCCCNc1ncc(-c2ccc(C3=CCC(CN(C)C)CC3)cn2)c(N[C@H]2CC[C@H](O)CC2)n1 (stereo partly shown) [UNC4387A] :: 320

Hi! Can you tell me IC50 for each of these compounds?
1. CCCCNc1ncc(C(=O)NCc2ccc(-c3ccccc3OC)nc2)c(N[C@H]2CC[C@H](O)CC2)n1 [UNC4255A]
2. CCCCNc1ncc(C(=O)NCCCN2CCOCC2)c(NCCCC)n1 [UNC1840A]
3. CCCCNc1ncc(-c2ccc(C(=O)O)nn2)c(N[C@H]2CC[C@H](O)CC2)n1 [UNC3042A]

// result
[336, 5540, 558]

###

- STUDY TARGET: Axl (Homo sapiens (Human), UniProt P30530)
- ASSAY: biochemical
PARAMETER MEASURED: IC50 (nM)
Answers are plain numbers, in nM.

# return IC50 for each item in the list
1. CCCCNc1ncc(C(=O)NC2CCN(C3CCN(C)CC3)CC2)c(N[C@H]2CC[C@H](O)CC2)n1 [UNC2698A]
2. CCCCNc1ncc(C(=O)NC2CCC2)c(N[C@H]2CC[C@H](O)CC2)n1 [UNC2737A]

// result
[175, 491]

###

- STUDY TARGET: Axl (Homo sapiens (Human), UniProt P30530)
- MEASUREMENT CONDITIONS: read-out: IC50 Axl
Would you mind telling me the reported IC50 of each entry?
Field note: include the unit after the figure.

CCCCNc1ncc(C(=O)NCC2CCNCC2)c(N[C@H]2CC[C@H](O)CC2)n1 [UNC4287A] :: 960 nM
CCCCNc1ncc(-c2ccc(N3CCN(C(=O)OC(C)(C)C)CC3)nn2)c(N[C@H]2CC[C@H](O)CC2)n1 [UNC3071A] :: 275 nM

Answer for every listed entry: what is its IC50? The entries follow.
1. CCCCNc1ncc(-c2cn(C(c3ccccc3)(c3ccccc3)c3ccccc3)cn2)c(N[C@H]2CC[C@H](O)CC2)n1 [UNC3117A]
2. CCCCNc1ncc(-c2nc(C(=O)O)cs2)c(N[C@H]2CC[C@H](O)CC2)n1 [UNC3139A]
3. CCCCNc1ncc(C(=O)NCc2ccc(-n3cnc(CO)c3)cc2)c(N[C@H]2CC[C@H](O)CC2)n1 [UNC3183A]

// result
30000 nM
4540 nM
703 nM

###

For each record, write down the corresponding pIC50.
- STUDY TARGET: Axl (Homo sapiens (Human))
- MEASUREMENT CONDITIONS: read-out: IC50 Axl
Numbers only, as −log10 of the molar value.

# annotated cases, reported pIC50 shown
CCCCNc1ncc(C(=O)Nc2ccc(CCN3CCN(C)CC3)cc2)c(N[C@H]2CC[C@H](O)CC2)n1 [UNC2806A] :: 6.58
CCCCNc1ncc(C(=O)NCc2ccc(-c3ccc(OC)cc3)nc2)c(N[C@H]2CC[C@H](O)CC2)n1 [UNC4238A] :: 6.16
CCCCNc1ncc(C(=O)NC2CCN(CC3CCCC3)CC2)c(N[C@H]2CC[C@H](O)CC2)n1 [UNC2878A] :: 6.72
CCCCNc1ncc(-c2ncc(C(N)=O)s2)c(N[C@H]2CC[C@H](O)CC2)n1 [UNC3134A] :: 6.84
CCCCNc1ncc(-c2ccc(CNC34CC5CC(CC(C5)C3)C4)cn2)c(N[C@H]2CC[C@H](O)CC2)n1 [UNC4166A] :: 7.89

Go through the items and report each one's pIC50.
1. CCCCNc1ncc(-c2ccc(C=C3CCN(C(C)C)CC3)cn2)c(N[C@H]2CC[C@H](O)CC2)n1 [UNC4340A]
2. CCCCNc1ncc(-c2ccc(CN3C[C@H](C)NC[C@H]3C)cn2)c(NC2CCC(O)CC2)n1 (stereo partly shown) [UNC4109A]
3. CCCCNc1ncc(-c2ccc(CN3CCN[C@@H](C)C3)cn2)c(NC2CCC(O)CC2)n1 (stereo partly shown) [UNC4106A]

// result
8.04
6.92
7.33

State the recorded pIC50 for every item in the following list.
1. CCCCNc1ncc(-c2ccc(OC)nn2)c(N[C@H]2CC[C@H](O)CC2)n1 [UNC3049A]
2. O[C@H]1CC[C@H](Nc2nc(NCCC3CC3)ncc2-c2ccc(CN3CCCC3)cn2)CC1 [UNC4197A]
3. CCCCNc1ncc(C(=O)NCc2ccc(-c3ccc4ccccc4c3)nc2)c(N[C@H]2CC[C@H](O)CC2)n1 [UNC4235A]
4. CCCCNc1ncc(C(=O)NCC2CCCCC2)c(N[C@H]2CC[C@H](O)CC2)n1 [UNC2603A]
5. CCCCNc1ncc(C(=O)NCc2ccc(-c3cccnc3)nc2)c(N[C@H]2CC[C@H](O)CC2)n1 [UNC4236A]

// result
[5.35, 7.37, 5.74, 5.95, 6.67]
